assay: Metabolic stability in human liver microsomes assessed as parent compound remaining at 1 uM preincubated for 5 mins followed by NADPH regeneration system addition and measured after 30 mins by LC-MS analysis; format: ADME, Microsome; conditions: time 35 min, read-out: Stabilty
measured property: remaining at 0.5 h, 1 µM (%)
Report only the number, with the unit % understood.

Would you mind telling me what remaining at 0.5 h, 1 µM value was observed for Clc1cccc(-c2n[nH]cc2N2CCCNCC2)c1 ?
27.5
